# experimental-target: T1, human HVEM extracellular domain fused with an Fc fragment at the C-terminus (human, UniProt Q92956 39-202)
# T1 construct: extracellular domain; Bought; also called hHVEM; not shown: Fc fragment at the C-terminus
# T1 sequence (looked up): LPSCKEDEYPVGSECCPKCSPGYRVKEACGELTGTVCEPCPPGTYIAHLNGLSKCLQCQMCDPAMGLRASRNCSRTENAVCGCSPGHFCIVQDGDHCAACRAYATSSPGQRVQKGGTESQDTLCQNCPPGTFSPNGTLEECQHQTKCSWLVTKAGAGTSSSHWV
# test-method-notes: ELISA on coated target-Fc
measured-metric: EC50 (µg/mL)
Answer with a number only, understood to be in µg/mL.

- binder: "LIGHT-39 (ligand, Printed mutations: L158P, L166M, L220M; Soluble protein carries an N-terminal His tag) DGPAGSWEQLIQERRSHEVNPAAHLTGANSSLTGSGGPLLWETQLGLAFLRGLSYHDGALVVTKAGYYYIYSKVQLGGVGCPLGPASTITHGMYKRTPRYPEELELLVSQQSPCGRATSSSRVWWDSSFLGGVVHLEAGEKVVVRVMDERLVRLRDGTRSYFGAFMV"
  result-unit: "µg/mL"
  EC50: 0.049
- binder: "LIGHT-17 (ligand, Printed mutations: H208Y, Q117N; Soluble protein carries an N-terminal His tag) DGPAGSWEQLIQERRSHEVNPAAHLTGANSSLTGSGGPLLWETNLGLAFLRGLSYHDGALVVTKAGYYYIYSKVQLGGVGCPLGLASTITHGLYKRTPRYPEELELLVSQQSPCGRATSSSRVWWDSSFLGGVVYLEAGEKVVVRVLDERLVRLRDGTRSYFGAFMV"
  result-unit: "µg/mL"
  EC50: 0.0511

Please examine the following record next.
Memo: LIGHT-10 (ligand, Printed mutations: G150S, T161P, L220S; Soluble protein carries an N-terminal His tag) DGPAGSWEQLIQERRSHEVNPAAHLTGANSSLTGSGGPLLWETQLGLAFLRGLSYHDGALVVTKAGYYYIYSKVQLSGVGCPLGLASPITHGLYKRTPRYPEELELLVSQQSPCGRATSSSRVWWDSSFLGGVVHLEAGEKVVVRVSDERLVRLRDGTRSYFGAFMV , reported EC50: 0.0467
